target-entity: Programmed cell death protein 1/Programmed cell death 1 ligand 1 (Homo sapiens)
Sequence (Q15116 whole entry): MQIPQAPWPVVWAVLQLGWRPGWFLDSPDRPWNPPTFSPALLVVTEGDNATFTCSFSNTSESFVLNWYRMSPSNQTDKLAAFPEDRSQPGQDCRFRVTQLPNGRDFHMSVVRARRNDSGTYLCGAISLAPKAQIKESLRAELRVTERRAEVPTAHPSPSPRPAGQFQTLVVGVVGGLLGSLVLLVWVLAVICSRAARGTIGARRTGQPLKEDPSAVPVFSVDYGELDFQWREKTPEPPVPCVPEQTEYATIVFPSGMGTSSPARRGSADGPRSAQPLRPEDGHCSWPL
Sequence (Q9NZQ7 whole entry): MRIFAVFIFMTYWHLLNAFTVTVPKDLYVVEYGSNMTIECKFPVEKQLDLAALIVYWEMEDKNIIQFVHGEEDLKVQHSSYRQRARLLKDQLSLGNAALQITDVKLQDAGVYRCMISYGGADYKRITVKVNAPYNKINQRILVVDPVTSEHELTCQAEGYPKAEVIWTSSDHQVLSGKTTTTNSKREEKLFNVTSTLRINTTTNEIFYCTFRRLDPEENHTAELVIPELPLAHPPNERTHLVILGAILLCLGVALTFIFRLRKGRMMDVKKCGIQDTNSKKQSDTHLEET
experiment-summary: Inhibition of human PDL1 expressed in CHO-K1 cells co-expressing aAPC assessed as reduction in PDL1 interaction with human PD1 expressed in Jurkat T cells incubated for 18 hrs by Bio-Glo reagent based luminescence assay
// EC50 lookup, one value per entry

| test-smiles | unit-of-measurement | qualifier-symbol | EC50 |
| --- | --- | --- | --- |
| COc1cc(OCc2cccc(-c3cccc(COc4ccc(CN[C@H](CO)C(=O)O)c(OCc5cncc(C#N)c5)c4)c3C)c2C)ccc1CN[C@H](CO)C(=O)O | µM | = | 9.5 |
| Cc1c(COc2ccc(CN[C@H](CO)C(=O)O)c(OCc3cncc(C#N)c3)c2)cccc1-c1cccc(COc2ccc(CN[C@H](CO)C(=O)O)c(OCc3cncc(C#N)c3)c2)c1 | µM | = | 8.4 |
| Cc1c(COc2ccc(CN[C@H](CO)C(=O)O)c(OCc3cncc(C#N)c3)c2)cccc1-c1ccccc1 | µM | > | 30 |
| Cc1c(COc2cccc(OCc3cncc(C#N)c3)c2)cccc1-c1cccc(COc2ccc(CN[C@H](CO)C(=O)O)c(OCc3cncc(C#N)c3)c2)c1C | µM | > | 100 |
| Cc1c(COc2ccc(CN[C@H](CO)C(=O)O)c(OCc3cncc(C#N)c3)c2)cccc1-c1cccc(COc2ccc(CN[C@H](CO)C(=O)O)c(OCc3cncc(C#N)c3)c2)c1C | µM | = | 1 |
